The measured values listed here are drawn from patent US20090311246A1.

# Tested on: sera from SFV-infected B6 mice
# Type: binding
# Run parameters: SFV-infected mice sera, days 7-9 pi, day 0 OD subtracted
# Protocol: To measure the antibody response of both WT and γδ KO mice against SFV and two of the peptides of the SFV envelope protein, E2, an indirect ELISA was performed. Sera were pooled from 4-6 SFV-infected WT, and 3 KO, mice on days 0, 7, 14, 21 and 35 pi. […] In some instances day 0 OD values were high, thus making the differences appear small. Therefore, to account for such discrepancy, we also determined the ratio of the highest day (day 15 or 21) over day 0.
Please provide measured Net change in the levels of antibody (ΔOD), D7-9 for the entries that follow.

Here's what some known entries look like.
GKDSHTRTTHYGS [MBP 56-68, mouse MBP 56-68 peptide, mimicked by E2 137-151] : 1.10 ± 0.04 ΔOD
H-IQDTRNAVRACRIQYHHD-OH [E2 115-129, reference compound] : 0.82 ± 0.40 ΔOD
EGVNDNEEGFFSAR [FB, Fibrinopeptide B, 1-14, negative control peptide] : 0.06 ± 0.07 ΔOD
DEAELPSRISPGKNA [MOG 18-32] : 0.34 ± 0.31 ΔOD

With those in mind, consider the next substance.
# input Request body: readout Net change in the levels of antibody (ΔOD), D7-9, system sera from SFV-infected B6 mice, query NH2-MEVGWYRSPFSRVVHLYRNGK-OH (H-MEVGWYRSPFSRVVHLYRNGK-OH) [MOG 35-55, myelin oligodendrocyte glycoprotein (MOG) peptide 35-55] . Return the value.
# output 055 ± 0.08 ΔOD

* * *

# Tested on: sera from SFV-infected B6 mice
# Type: binding
# Run parameters: OD of highest day (day 15 or 21) over day 0, SFV-infected sera
Entry flag: Satisfied if Dh / D0 (Ratio) reaches 3; Not satisfied if it does not.

Solved entries (count: 4):
EGVNDNEEGFFSAR [FB, Fibrinopeptide B, 1-14, negative control peptide] : Not satisfied
NH2-MEVGWYRSPFSRVVHLYRNGK-OH (H-MEVGWYRSPFSRVVHLYRNGK-OH) [MOG 35-55, myelin oligodendrocyte glycoprotein (MOG) peptide 35-55] : Satisfied
H-IQDTRNAVRACRIQYHHD-OH [E2 115-129, reference compound] : Satisfied
DEAELPSRISPGKNA [MOG 18-32] : Satisfied

Could you now look at the following substance, please?
# input Please check the record GKDSHTRTTHYGS [MBP 56-68, mouse MBP 56-68 peptide, mimicked by E2 137-151] and state if its Dh / D0 (Ratio) is at or above 3.
# output Satisfied

* * *

Please provide measured Dh−D0 (difference) for the entries that follow.
# Test system: sera from SFV-infected B6 mice
# Format: binding
# Run parameters: OD of highest day minus day 0, SFV-infected sera
Give bare numbers.

Here's what some known entries look like.
H-IQDTRNAVRACRIQYHHD-OH [E2 115-129, reference compound] : 0.458
GKDSHTRTTHYGS [MBP 56-68, mouse MBP 56-68 peptide, mimicked by E2 137-151] : 0.824
THYGSLPQKSQR (GSGKDSHTRTTH) [MBP 64-75, myelin basic protein peptide 64-75] : 0.375

Go through the list and state Dh−D0 (difference) for each entry.
1. NH2-MEVGWYRSPFSRVVHLYRNGK-OH (H-MEVGWYRSPFSRVVHLYRNGK-OH) [MOG 35-55, myelin oligodendrocyte glycoprotein (MOG) peptide 35-55]
2. DEAELPSRISPGKNA [MOG 18-32]

# output
1. 0.362
2. 0.919

# input So what's the measured Dh−D0 (difference) for this one? EGVNDNEEGFFSAR [FB, Fibrinopeptide B, 1-14, negative control peptide]
# output 0.068
